B1: Azoarcus group I ribozyme (parent)
chain: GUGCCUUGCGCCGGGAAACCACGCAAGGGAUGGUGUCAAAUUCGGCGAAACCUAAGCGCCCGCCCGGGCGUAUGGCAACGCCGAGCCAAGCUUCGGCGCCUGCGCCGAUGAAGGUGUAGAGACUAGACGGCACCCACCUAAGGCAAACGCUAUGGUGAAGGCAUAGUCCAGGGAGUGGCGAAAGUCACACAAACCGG

# Variants of: B1
# Protocol details: reverse-splicing fitness (ratio to wild type); higher = more active; in vitro selection; Mg2+ level not given
Reported values of reverse-splicing fitness for individual entries

Change	reverse-splicing fitness
C82G A111G A145C C169G U176A	0.022
A111G A120G A145G	0.285
C82A A111U A120G A145U C150U U176C	0.0151
C82U A111U A120C A145G C150G U176C	0.0109
C82U C150A C169A U176A	0.019
A111C A145G C150G C169U U176C	0.0142
A145G C150G C169A U176C	0.0194
A111G A120G A145U C150G C169U U176G	0.00442
A111G A120C A145G C150A C169A	0.0114
C82A A120C A145G C150A C169G	0.00977
C82U A111U A145C C150A	0.0151
C82U A111U A145C C169A	0.00671
C82A A111U A120U A145G C150U C169G U176A	0.00984
C82U A120G A145C C150A	0.00664
C82G A111G A120G A145C C150G U176C	0.0133
A111G A120U A145G C150G U176C	0.0188
A111U A145U C150U C169A U176C	0.0104
C82A A111G A120U C150A C169U U176A	0.00585
C82G A111U A120U A145U C150U C169U	0.00381
C82G A111C C150A C169U U176G	0.0093
C82A A111U A145C U176A	0.0948
C82G A111C A120G A145C	0.013
C82U A120C A145G C150U C169U	0.0209
A120G A145U C169G U176G	0.0156
C82U A111C A120U A145U C150A C169U U176A	0.00365
C82G A111G A120G A145G C150G U176C	0.0114
C82A A111G A120U A145G C150A C169A	0.00676
C82A A111C A120G A145C C150A C169A U176C	0.00778
A111U A120C A145C C150U U176A	0.0815
C82G A111U A120C A145G C150A U176A	0.011
C82U A120G A145G C150G C169G	0.00862
C82A A111U A120C A145G C169A U176C	0.0332
C82U A120U A145C C150U C169A	0.00167
C82U A111U A120C C150G C169U U176A	0.0091
C82U A145G C150G C169U	0.00979
A120G C150U C169G U176C	0.195
C82U A111U A120C C150U C169U	0.0134
C82A A111U A120C A145G C169A	0.0113
A120G C150G C169A U176G	0.0055
C82A A111C A120U A145C C169U U176G	0.00232
C82A A111U A120U A145U C169A U176G	0.00222
C82A A120G A145G C169A	0.0151
C82U A120U A145G C150G	0.0229
C82A A111U A120U A145G C150A C169U U176C	0.00543
C82U A145C C150G C169U U176G	0.00486
C82A A111G A120C A145G C150U	0.0349

Provenance of the data: the RNAGym collection of RNA variant scans (doi:10.1093/molbev/msab373)
